Data origin, for the record: PubChem BioAssay AID1918956

System: OVCAR-5 complex spheroids, viability
experimental.protocol: Anticancer human tumor OVCAR-5 cell line growth inhibition;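 note: spheroids exposed to agents for seven days; 100% = DMSO vehicle control wells viability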
experimental.context: second compound 0.1 µM; first compound 0.1 µM; active compounds read low
readout.label: viability, T/C (%)
I only need the number, in %, no unit after it.

Q: Item CC1COCCN1c1cc(C2(S(C)(=N)=O)CC2)nc(-c2ccnc3[nH]ccc23)n1 (configuration not stated) + NC1CC1c1ccc(-c2cccc(O)c2)cc1 has what recorded viability, T/C?
A: 78.3

Q: Here is the next compound: CC1(C)CCC(CN2CCN(c3ccc(C(=O)NS(=O)(=O)c4ccc(NCC5CCOCC5)c([N+](=O)[O-])c4)c(Oc4cnc5[nH]ccc5c4)c3)CC2)=C(c2ccc(Cl)cc2)C1 + NC1CCC(NC2CC2c2ccccc2)CC1
A: 97.5

Q: Here is the next compound: Cn1ncnc1C1c2n[nH]c(=O)c3cc(F)cc(c23)NC1c1ccc(F)cc1 (configuration not stated) + NC1CCC(NC2CC2c2ccccc2)CC1
A: 100

Q: Here is the next compound: CC(C)CC(NC(=O)CNC(=O)c1cc(Cl)ccc1Cl)B1OC(=O)CC(CC(=O)O)(C(=O)O)O1 (configuration not stated) + NC1CC1c1ccc(-c2cccc(O)c2)cc1
A: 55

Q: Here is the next compound: Nc1ncn(C2CC(O)C(CO)O2)c(=O)n1 (configuration not stated) + NC1CC1c1ccc(-c2cccc(O)c2)cc1
A: 74.2

Q: Here is the next compound: CC1COCCN1c1cc(C2(S(C)(=N)=O)CC2)nc(-c2ccnc3[nH]ccc23)n1 (configuration not stated) + NC1CCC(NC2CC2c2ccccc2)CC1
A: 116

Q: Here is the next compound: O=C(c1cc(Cc2n[nH]c(=O)c3ccccc23)ccc1F)N1CCN(C(=O)C2CC2)CC1 + NC1CCC(NC2CC2c2ccccc2)CC1
A: 116

Q: Here is the next compound: CC1COCCN1c1cc(-c2ccnn2C)c2ccnc(-c3ccn[nH]3)c2n1 (configuration not stated) + NC1CC1c1ccc(-c2cccc(O)c2)cc1
A: 35.6

Q: Here is the next compound: CC[C@@]1(O)C(=O)OCc2c1cc1n(c2=O)Cc2cc3c(CN(C)C)c(O)ccc3nc2-1 + NC1CC1c1ccc(-c2cccc(O)c2)cc1
A: 18.8

Q: Here is the next compound: O=C(C=Cn1cnc(-c2cc(C(F)(F)F)cc(C(F)(F)F)c2)n1)NNc1cnccn1 + NC1CC1c1ccc(-c2cccc(O)c2)cc1
A: 42.1

Q: Here is the next compound: COc1ccc([C@@H](O)c2cc(-c3ncnc4cc(N5CCOCC5)ccc34)c(F)cc2Cl)nn1 + NC1CCC(NC2CC2c2ccccc2)CC1
A: 91.5

Q: Here is the next compound: CC(C)CC(NC(=O)CNC(=O)c1cc(Cl)ccc1Cl)B1OC(=O)CC(CC(=O)O)(C(=O)O)O1 (configuration not stated) + NC1CCC(NC2CC2c2ccccc2)CC1
A: 71.8
